molecular target: Sodium channel protein type 10 subunit alpha (Homo sapiens); experiment: Inhibition of human Nav1.8 channel stably expressed in HEK293 cells assessed as sodium current flow at holding potential of -90mV by whole-cell voltage clamp assay; assay type: cell-based
As shown below, each of these compounds has a reported pIC50 value.
Note: pIC50 values are expressed as the negative base-10 logarithm of concentration in M.

Look up pIC50 of O=C1C[C@H](C(=O)NC(c2ccc(F)c(Cl)c2)c2ccc(F)c(C(F)(F)F)n2)CN1 (stereo partly specified) and report it.
8.54

* * *

Reported IC50 values follow for various molecules
target: Sodium channel protein type 10 subunit alpha (Homo sapiens, UniProt Q9Y5Y9); assay: Inhibition of human Nav1.8 channel stably expressed in HEK293 cells assessed as sodium current flow at holding potential of -90mV by whole-cell voltage clamp assay
Sequence (Q9Y5Y9 whole entry, looked up): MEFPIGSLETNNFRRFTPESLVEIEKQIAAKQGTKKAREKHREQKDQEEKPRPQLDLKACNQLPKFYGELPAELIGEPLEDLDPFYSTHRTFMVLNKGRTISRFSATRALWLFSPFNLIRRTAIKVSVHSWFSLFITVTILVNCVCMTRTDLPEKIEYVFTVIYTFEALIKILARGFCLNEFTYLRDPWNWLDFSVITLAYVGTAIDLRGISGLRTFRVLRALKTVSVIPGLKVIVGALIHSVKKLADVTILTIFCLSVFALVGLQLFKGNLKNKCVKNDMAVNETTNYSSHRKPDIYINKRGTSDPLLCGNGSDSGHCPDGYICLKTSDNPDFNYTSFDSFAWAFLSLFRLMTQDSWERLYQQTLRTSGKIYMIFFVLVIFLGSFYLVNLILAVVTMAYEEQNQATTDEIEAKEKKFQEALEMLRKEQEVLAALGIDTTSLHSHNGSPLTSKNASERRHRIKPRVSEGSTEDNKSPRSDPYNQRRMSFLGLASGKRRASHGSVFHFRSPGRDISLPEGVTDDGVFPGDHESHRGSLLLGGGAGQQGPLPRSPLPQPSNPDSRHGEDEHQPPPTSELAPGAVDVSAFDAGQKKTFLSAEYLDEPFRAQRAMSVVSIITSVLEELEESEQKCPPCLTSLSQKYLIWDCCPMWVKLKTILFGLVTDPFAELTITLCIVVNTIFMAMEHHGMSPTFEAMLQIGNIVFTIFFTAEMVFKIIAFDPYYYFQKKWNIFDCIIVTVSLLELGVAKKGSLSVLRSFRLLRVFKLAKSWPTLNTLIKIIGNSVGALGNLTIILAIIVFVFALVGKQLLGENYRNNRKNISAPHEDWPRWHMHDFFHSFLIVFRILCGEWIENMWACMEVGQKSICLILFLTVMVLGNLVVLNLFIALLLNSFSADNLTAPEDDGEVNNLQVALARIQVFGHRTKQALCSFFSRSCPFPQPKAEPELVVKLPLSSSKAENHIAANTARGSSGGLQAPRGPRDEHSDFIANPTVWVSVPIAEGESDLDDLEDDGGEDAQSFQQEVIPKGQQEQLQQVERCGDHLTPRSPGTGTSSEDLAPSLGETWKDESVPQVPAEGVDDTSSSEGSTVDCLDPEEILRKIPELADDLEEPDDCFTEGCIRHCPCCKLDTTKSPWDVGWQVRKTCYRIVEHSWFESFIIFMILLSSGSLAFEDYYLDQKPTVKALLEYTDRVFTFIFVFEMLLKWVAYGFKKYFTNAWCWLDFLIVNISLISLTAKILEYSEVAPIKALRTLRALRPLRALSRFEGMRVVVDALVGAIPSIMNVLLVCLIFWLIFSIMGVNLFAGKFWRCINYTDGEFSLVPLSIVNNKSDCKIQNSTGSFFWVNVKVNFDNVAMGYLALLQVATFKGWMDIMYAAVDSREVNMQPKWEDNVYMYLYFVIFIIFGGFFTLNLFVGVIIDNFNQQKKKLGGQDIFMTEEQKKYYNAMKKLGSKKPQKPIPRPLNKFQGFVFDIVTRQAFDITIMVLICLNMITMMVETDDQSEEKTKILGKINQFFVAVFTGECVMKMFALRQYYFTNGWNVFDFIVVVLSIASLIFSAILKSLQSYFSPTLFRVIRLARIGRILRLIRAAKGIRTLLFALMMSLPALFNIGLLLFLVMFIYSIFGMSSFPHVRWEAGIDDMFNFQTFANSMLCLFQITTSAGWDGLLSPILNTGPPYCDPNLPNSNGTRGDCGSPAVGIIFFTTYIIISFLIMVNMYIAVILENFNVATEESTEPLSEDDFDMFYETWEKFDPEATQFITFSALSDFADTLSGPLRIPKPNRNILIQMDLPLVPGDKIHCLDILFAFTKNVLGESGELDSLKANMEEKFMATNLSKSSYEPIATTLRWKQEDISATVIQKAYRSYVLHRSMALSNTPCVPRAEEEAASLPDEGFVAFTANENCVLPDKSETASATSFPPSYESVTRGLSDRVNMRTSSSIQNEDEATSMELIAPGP
Numbers only; they are read as nM.

Some solved entries appear below for comparison.
{"columns": ["molecule", "assay-metric", "observed-measurement"],
 "data": [
  ["O=C1C[C@H](C(=O)NC(c2ccc(Cl)cc2)c2ccc(F)c(Cl)c2)CN1 (stereo not given in full)", "IC50", 3.4],
  ["O=C1C[C@H](C(=O)NC(c2ccc(Cl)cc2)c2ccc(F)c(C(F)(F)F)c2)CN1 (stereo not given in full)", "IC50", 2.6]
]}

Look up IC50 of O=C1C[C@H](C(=O)NC(c2ccc(Cl)cc2)c2ccc(OC(F)(F)F)cc2)CN1 (stereo not given in full) and report it.
4.1

Give the reported value of IC50 for this record: O=C1C[C@H](C(=O)NC(c2cnc(C(F)(F)F)c(Cl)c2)c2ccc(F)c(Cl)c2F)CN1 (stereo not given in full)
4.2

Output measured IC50 for this item: O=C1C[C@H](C(=O)NC(c2ccc(Cl)cc2)c2ccc(Cl)c(C(F)(F)F)c2)CN1 (stereo not given in full)
1.2
